Catalogue of activity at 10 µM values
Test system: MALME-3M
assay_remarks: NCI60 one-dose screen
Format: cell-based
condition_details: Homo sapiens, Malme-3M, read-out: Growth percent
Just the number please, in %, no unit attached.

Sample records with activity at 10 µM:
>  <molecule>
CC[C@]12C=CCN3CC[C@@]4(c5ccc(OC)cc5N(C)[C@H]4[C@@](O)(C(=O)OC)[C@@H]1OC(=O)CCCC[P+](c1ccc(C)cc1)(c1ccc(C)cc1)c1ccc(C)cc1)[C@@H]32 [10a]

>  <display_unit>
%

>  <reported_measurement>
-96

$$$$
>  <molecule>
CCC12C=CCN3CCC4(c5ccc(OC)cc5N(C)C4C(O)(C(=O)OC)C1OC(=O)CCC[P+](c1ccc(C)cc1)(c1ccc(C)cc1)c1ccc(C)cc1)C32 (stereo not shown) [9a]

>  <display_unit>
%

>  <reported_measurement>
-94.4

$$$$
>  <molecule>
CCC12C=CCN3CC[C@@]4(c5ccc(OC)cc5N(C)[C@H]4[C@@](O)(C(=O)OC)[C@@H]1OC(C)=O)[C@@H]32 (stereo partly shown) [compound 2, vindoline]

>  <display_unit>
%

>  <reported_measurement>
98

$$$$

Proceed to the following item.
Identify the reported activity at 10 µM for the following entry. CC[C@]12C=CCN3CC[C@@]4(c5ccc(OC)cc5N(C)[C@H]4[C@@](O)(C(=O)OC)[C@@H]1OC(=O)CCC[P+](C1CCCCC1)(C1CCCCC1)C1CCCCC1)[C@@H]32 [9d]
-96.1

----------
Test system: NCI-H23
assay_remarks: NCI60 one-dose screen
Format: cell-based
condition_details: Homo sapiens; NCI-H23, 10 μM, one-dose; read-out: Growth percent
The following compounds are shown together with reported activity at 10 µM values.
Numbers only; they are read as %.

Example entries and their recorded answers appear below.
>  <compound>
CCC12C=CCN3CCC4(c5ccc(OC)cc5N(C)C4C(O)(C(=O)OC)C1OC(=O)c1ccc(C[P+](c4ccccc4)(c4ccccc4)c4ccccc4)cc1)C32 (centres unmarked) [compound 12]

>  <display_unit>
%

>  <activity at 10 µM>
0.48

$$$$
>  <compound>
CC[C@]12C=CCN3CC[C@@]4(c5ccc(OC)cc5N(C)[C@H]4[C@@](O)(C(=O)OC)[C@@H]1OC(=O)CCC[P+](c1ccc(OC)cc1)(c1ccc(OC)cc1)c1ccc(OC)cc1)[C@@H]32 [9b]

>  <display_unit>
%

>  <activity at 10 µM>
-92.5

$$$$
>  <compound>
CC[C@]12C=CCN3CC[C@@]4(c5ccc(OC)cc5N(C)[C@H]4[C@@](O)(C(=O)OC)[C@@H]1OC(=O)CCC[P+](c1ccccc1)(c1ccccc1)c1ccccc1)[C@@H]32 [compound 3, reference compound]

>  <display_unit>
%

>  <activity at 10 µM>
-8.66

$$$$
>  <compound>
CC[C@]12C=CCN3CC[C@@]4(c5ccc(OC)cc5N(C)[C@H]4[C@@](O)(C(=O)OC)[C@@H]1OC(=O)CCCC[P+](c1ccc(F)cc1)(c1ccc(F)cc1)c1ccc(F)cc1)[C@@H]32 [10c]

>  <display_unit>
%

>  <activity at 10 µM>
23.6

$$$$

# input for lookup
Fill in activity at 10 µM for record CC[C@]12C=CCN3CC[C@@]4(c5ccc(OC)cc5N(C)[C@H]4[C@@](O)(C(=O)OC)[C@@H]1OC(=O)CCC[P+](c1cc(C)c(OC)c(C)c1)(c1cc(C)c(OC)c(C)c1)c1cc(C)c(OC)c(C)c1)[C@@H]32 [9e]
-98.1
